Test system: SR leukemia
protocol.description: NCI tumour cell line growth inhibition, 48 h; in the data active = GI50 below about 0.43 µM; inactive = the rest
In this exercise, the only acceptable responses are 1 = active, 0 = inactive

molecule	category.label
COc1cccc(-n2ncc3c(N/N=C/c4ccncc4)ncnc32)c1	0
O=C(Nc1ccc(Cl)cc1)Nc1ccc(Nc2nncc3ccccc23)cc1	0
CCCCN(CCCC)c1ccc(C(=N)c2ccc(N(CCCC)CCCC)cc2)cc1	1

Recorded test outcome, item "CCCOC(=O)N1CCN(/[N+]([O-])=N/Oc2ccc([N+](=O)[O-])cc2[N+](=O)[O-])CC1"
1

Recorded test outcome, item Cn1cc(C2=C(c3cccc(OCC(O)CO)c3)C(=O)NC2=O)c2ccccc21 (stereo not given)
0
